FYI, the data here is from the RNAGym collection of RNA variant scans (doi:10.1126/science.aae0568).

yeast fitness: recorded values
B1: tRNA (parent)
chain: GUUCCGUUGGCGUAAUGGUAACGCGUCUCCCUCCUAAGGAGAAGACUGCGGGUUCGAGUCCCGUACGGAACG

Variants of: B1
assay_info: yeast fitness relative to wild type (ratio to wild type); higher = fitter; tRNA-Arg(CCU), competitive growth, 37 C, YPD
Fewer inactive variants are shown than the library holds.

- G25A G50C U54C: 0.627
- A15G G25C: 0.987
- U8A C66A G68C: ≤ 0.5

Query: Reported yeast fitness for U3A A15C U16A U35A G52C C55A : what is it?
Reply: ≤ 0.5

Query: Reported yeast fitness for U8G A20G U47G A57G : what is it?
Reply: 0.654

Query: Reported yeast fitness for G39C A70U : what is it?
Reply: 0.873
